Test system: Escherichia coli TOP10
procedure_details: shrunken log2 fold change of peptide-encoding DNA abundance (4.5 h post-induction vs induction); higher = less antimicrobial activity (less host growth inhibition)
assay_conditions: time post-induction: 4.5 h; library: site-saturation at positions 5, 18, 19, 20
# key: entry, value: shrunken log2 fold change
# answer = number (no unit)

INSERT INTO assay_data (biopolymer_sequence, reported_result) VALUES
  ('RRIRDRPPRLPRPRPRPRDSPRP', -0.153);

Request: shrunken log2 fold change, test system Escherichia coli TOP10, entry `RRIRRRPPRLPRPRPRPHINPRP`
-0.432

Request: shrunken log2 fold change, test system Escherichia coli TOP10, entry `RRIRLRPPRLPRPRPRPPNEPRP`
-0.0407

Request: shrunken log2 fold change, test system Escherichia coli TOP10, entry `RRIRHRPPRLPRPRPRPHFVPRP`
-0.136

Request: shrunken log2 fold change, test system Escherichia coli TOP10, entry `RRIRQRPPRLPRPRPRPQVCPRP`
0.0103

Request: shrunken log2 fold change, test system Escherichia coli TOP10, entry `RRIRHRPPRLPRPRPRPINFPRP`;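 note: peptides expressed intracellularly from a pBAD plasmid library in pooled LB shake-flask culture, induced with 0.3% L-arabinose, DNA abundance read by NGS, three biological replicates, DESeq2 with apeglm shrinkage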
-0.368
